Experiment: Cmax in C57BL/6 mouse plasma at 22 mg/kg, iv administered as single dose measured 24 hrs by UPLC-MS/MS analysis
Type: ADME, organism-based
Design: dose 22 mg/kg, route intravenous
Experimental endpoint: Cmax (ng/mL)
# number only, unit ng/mL dropped from output

Entry `C[C@H](Cc1ccc(OCc2ccc(Cl)c(Cl)c2)cc1)N(C)CC(=O)O` — recorded Cmax = 16200

---

Assay: Cmax in C57BL/6 mouse plasma at 24.5 mg/kg, iv administered as single dose measured 24 hrs by UPLC-MS/MS analysis
Format: ADME, organism-based
Parameters: dose 24.5 mg/kg, route intravenous
Experimental endpoint: Cmax (ng/mL)
# number only, unit ng/mL dropped from output

Entry `C[C@H](Cc1ccc(OCc2ccc(Br)c(Cl)c2)cc1)N(C)CC(=O)O` — recorded Cmax = 16700

---

Experiment: AUClast in C57BL/6 mouse plasma at 23.4 mg/kg, iv administered as single dose measured 24 hrs by UPLC-MS/MS analysis
Format: ADME, organism-based
Design: dose 23.4 mg/kg, time 0 - last, route intravenous
Experimental endpoint: AUC(0-t) at 24 h (ng·h/mL)
# number only, unit ng·h/mL dropped from output

Entry `CN(CC(=O)O)[C@H](CC#N)Cc1ccc(OCc2ccc(Cl)c(Cl)c2)cc1` — recorded AUC(0-t) at 24 h = 39100

---

Assay: Apparent half-life of the terminal disposition phase in C57BL/6 mouse plasma at 23.4 mg/kg, sc administered as single dose measured 24 hrs by UPLC-MS/MS analysis
Format: ADME, organism-based
Details: read-out: t1/2 lambda z (converted)
Experimental endpoint: half-life (min)
# number only, unit min dropped from output

Entry `CN(CC(=O)O)[C@H](CC#N)Cc1ccc(OCc2ccc(Cl)c(Cl)c2)cc1` — recorded half-life = 217

---

Assay: AUClast in C57BL/6 mouse brain at 20 mg/kg, iv administered as single dose measured 24 hrs by UPLC-MS/MS analysis
Type: ADME, organism-based
Design: dose 20 mg/kg, time 0 - last, route intravenous
Experimental endpoint: AUC(0-t) at 24 h
Don't forget the unit after the value.

Entry `C[C@H](Cc1ccc(OCc2cccc(Cl)c2)cc1)N(C)CC(=O)O` — recorded AUC(0-t) at 24 h = 2280 ng·h/mL

---

Experiment: Apparent half-life of the terminal disposition phase in C57BL/6 mouse brain at 10.8 mg/kg, iv administered as single dose measured 24 hrs by UPLC-MS/MS analysis
Assay type: ADME, organism-based
Conditions: read-out: t1/2 lambda z (converted)
Experimental endpoint: half-life (min)
# number only, unit min dropped from output

Entry C#CCN(C)[C@H](C)Cc1ccccc1 [SELEGILINE] — recorded half-life = 17.4

---

Experiment: Tmax in C57BL/6 mouse brain at 23.4 mg/kg, po administered as single dose measured 24 hrs by UPLC-MS/MS analysis
Assay type: ADME, organism-based
Experimental endpoint: Tmax (h)
# number only, unit h dropped from output

Entry `CN(CC(=O)O)[C@H](CC#N)Cc1ccc(OCc2ccc(Cl)c(Cl)c2)cc1` — recorded Tmax = 1

---

Assay: Apparent half-life of the terminal disposition phase in C57BL/6 mouse plasma at 23.4 mg/kg, iv administered as single dose measured 24 hrs by UPLC-MS/MS analysis
Format: ADME, organism-based
Conditions: read-out: t1/2 lambda z (converted)
Experimental endpoint: half-life (min)
# number only, unit min dropped from output

Entry `CN(CC(=O)O)[C@H](CC#N)Cc1ccc(OCc2ccc(Cl)c(Cl)c2)cc1` — recorded half-life = 44.4

---

Molecular target: Amine oxidase [flavin-containing] A (Homo sapiens, UniProt P21397)
Sequence (P21397 whole entry): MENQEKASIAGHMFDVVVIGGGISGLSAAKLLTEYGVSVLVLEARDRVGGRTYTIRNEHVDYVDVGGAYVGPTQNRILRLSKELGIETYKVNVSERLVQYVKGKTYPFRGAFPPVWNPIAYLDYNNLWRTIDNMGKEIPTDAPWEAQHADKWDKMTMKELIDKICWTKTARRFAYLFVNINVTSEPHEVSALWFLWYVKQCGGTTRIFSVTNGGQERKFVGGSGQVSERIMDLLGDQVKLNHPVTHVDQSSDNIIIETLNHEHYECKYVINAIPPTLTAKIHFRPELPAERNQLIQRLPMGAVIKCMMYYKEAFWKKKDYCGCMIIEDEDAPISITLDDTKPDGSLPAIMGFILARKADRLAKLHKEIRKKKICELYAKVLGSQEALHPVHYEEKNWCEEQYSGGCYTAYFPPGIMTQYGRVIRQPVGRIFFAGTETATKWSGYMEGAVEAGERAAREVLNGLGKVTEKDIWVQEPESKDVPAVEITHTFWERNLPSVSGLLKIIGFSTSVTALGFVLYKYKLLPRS
Experiment: Inhibition of human recombinant MAO-A expressed in baculovirus infected BTI-TN-5B1-4 insect cells using tyramine as substrate preincubated for 1 hr followed by substrate addition and measured after 30 mins by resazurin dye-based fluorescence assay
Experimental endpoint: IC50

C[C@H](Cc1ccc(OCc2ccc(Cl)c(Cl)c2)cc1)N(C)CC(=O)O ... 41.4 µM
C[C@H](Cc1ccc(OCc2ccccc2)cc1)N(C)CC(=O)O ... > 50 µM

Next up:
Entry `C[C@H](Cc1ccc(OCc2cc(Cl)ccc2Cl)cc1)N(C)CC(=O)O` — recorded IC50 = > 50 µM
